System: hiPSCs differentiating into neural rosette-like cells
metric.name: ReproTracker results Neural rosette-like cells

See these solved cases before continuing.
compound	reported
O=C(O)COCCN1CCN(C(c2ccccc2)c2ccc(Cl)cc2)CC1 (stereo not drawn) [Cetirizine]	Negative
CC[C@H]1OC(=O)[C@H](C)[C@@H](O[C@H]2C[C@@](C)(OC)[C@@H](O)[C@H](C)O2)[C@H](C)[C@@H](O[C@@H]2O[C@H](C)C[C@H](N(C)C)[C@H]2O)[C@](C)(OC)C[C@@H](C)C(=O)[C@H](C)[C@@H](O)[C@]1(C)O [Clarithromycin]	Positive
Nc1ccn([C@@H]2O[C@H](CO)[C@@H](O)[C@@H]2O)c(=O)n1 [Cytarabine]	Positive
CCN(CC)CCNC(=O)c1cc(Cl)c(N)cc1OC [Metoclopramide]	Negative
Nc1nc2ncc(CNc3ccc(C(=O)N[C@@H](CCC(=O)O)C(=O)O)cc3)nc2c(=O)[nH]1 [Folic acid]	Negative

// moving on: another record for ReproTracker results Neural rosette-like cells
Any idea what its ReproTracker results Neural rosette-like cells is? The compound is CO [Methanol]
Negative
